biological target: CDK2 (Homo sapiens, UniProt P20248+P24941); construct: hemagglutinin (HA); made in house; host or cells: Sf9 or High Five insect cells, baculovirus co-infection; assay type: biochemical
Sequence (P20248 whole entry, one chain of several): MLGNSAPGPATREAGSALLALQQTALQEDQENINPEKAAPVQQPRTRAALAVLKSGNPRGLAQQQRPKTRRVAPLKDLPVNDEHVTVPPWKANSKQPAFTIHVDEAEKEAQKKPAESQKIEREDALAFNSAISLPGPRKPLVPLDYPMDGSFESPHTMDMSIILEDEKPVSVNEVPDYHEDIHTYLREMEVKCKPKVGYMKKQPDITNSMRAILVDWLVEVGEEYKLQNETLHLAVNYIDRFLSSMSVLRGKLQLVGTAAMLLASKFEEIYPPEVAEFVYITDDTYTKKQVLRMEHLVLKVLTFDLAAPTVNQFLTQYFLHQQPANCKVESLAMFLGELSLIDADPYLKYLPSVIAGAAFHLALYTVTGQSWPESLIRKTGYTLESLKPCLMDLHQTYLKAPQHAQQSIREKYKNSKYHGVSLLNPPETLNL
Where no end group is shown, it is not given here.
Measurement Label: relative kinase activity compared to activity in the presence of full length E7 (%)
Respond numerically; units are % and should not be typed.

Examples with their reported relative kinase activity compared to activity in the presence of full length E7 follow.
Task item: Any idea what relative kinase activity compared to activity in the presence of full length E7 came out for HPV E7(1-48): HPV16 E7 truncation, residues 1-48, GST fusion (MHGDTPTLHEYMLDLQPETTDLYCYEQLNDSSEEEDEIDGPAGQAEPD; also: GST fusion partner left off) on CDK2 (Homo sapiens, UniProt P20248+P24941)?
Reply: 73.25

Task item: Repeat for the following substance: GST-16E7(1-27): HPV16 E7 truncation, residues 1-27, GST fusion (MHGDTPTLHEYMLDLQPETTDLYCYEQ; also: GST fusion partner left off)
Reply: 28.64

Moving on to another substance below.
Task item: Please tell me: relative kinase activity compared to activity in the presence of full length E7 of HPV E7(1-15): HPV16 E7 truncation, residues 1-15, GST fusion (MHGDTPTLHEYMLDL; also: GST fusion partner left off) , system CDK2 (Homo sapiens, UniProt P20248+P24941)?
Reply: 15

Data origin, for the record: patent US6641994B2
